Recorded values, source PubChem BioAssay (NCI).

Tested on: NCI-H226 lung
Assay: NCI tumour cell line growth inhibition, 48 h
Below is a list of entries, each paired with its recorded TGI value.
The reply should contain only the number, in µM.

CCN(CC)CCCn1c(=O)c2ccccc2n2c3c(=O)n(C)c(=O)n(C)c3nc12 :: 14.3
CN1CCN(c2ccc(Nc3nc(N)c(C(=O)c4ccc5c(c4)OCCO5)s3)cc2)CC1 :: 11.8

Let us move to another entry and its TGI.
Item "O=c1cc(-c2ccccc2)oc2cc(O)cc(O)c12" ; assay system NCI-H226 lung; TGI reported as 58.1

---

Tested on: CAKI-1 renal
Assay: NCI tumour cell line growth inhibition, 48 h
Below is a list of entries, each paired with its recorded TGI value.

Solved entries (count: 4):
C=C1c2[nH]c3ccccc3c2C2C(CC)C1CCN2C (stereo not given) :: > 100 µM
Cc1nc(CN2CCCCC2)c(O)c(=O)[nH]1 :: > 100 µM
CCN(CC)CCCn1c(=O)c2ccccc2n2c3c(=O)n(C)c(=O)n(C)c3nc12 :: 15.1 µM
CC1=CCC2C3(C)CCC2(C(C)C)C1C3 (stereo not given) (tested in a mixture with another compound) :: 40.7 µM

For "O=C1C=CC2=[N+]([O-])C(c3ccccc3)(c3ccccc3)C(=Nc3ccccc3)C2=C1" the compound record lists TGI as 6.33 µM

---

Tested on: MALME-3M melanoma
Assay: NCI tumour cell line growth inhibition, 48 h
Below is a list of entries, each paired with its recorded TGI value.
The reply should contain only the number, in µM.

CCCC(=O)O[C@H]1C=C2C[C@@]34SS[C@]5(CC6=C[C@H](OC(C)=O)[C@@H]7O[C@@H]7[C@H]6N5C3=O)C(=O)N4[C@@H]2[C@H]2O[C@H]21 :: 0.0239

For "CCCCCCCCCc1cc[n+](CC(=O)c2ccc([N+](=O)[O-])cc2)cc1" the molecule record lists TGI as 3.03

---

Below is a list of entries, each paired with its recorded TGI value.
Test system: HOP-92 NSCLC
Experiment: NCI tumour cell line growth inhibition, 48 h
The reply should contain only the number, in µM.

Solved entries (count: 5):
Cc1cc(Nc2c3ccccc3nc3ccccc23)ccc1NS(C)(=O)=O :: 5.69
CC1=C(C(=O)Nc2cc(=O)n(C)c(=O)n2C)C(c2ccc([N+](=O)[O-])cc2)C(C(=O)Nc2cc(=O)n(C)c(=O)n2C)=C(C)N1 :: 85.7
O=[N+]([O-])/C=C/c1cc2ccccc2[nH]1 :: 43.5
COc1cc(C)cc2c1c(=O)c1ccccc1n2C :: 91.8
CN(C)CCSc1cccc(-c2cc(-c3cccc(SCCN(C)C)c3)nc(SCCN(C)C)n2)c1 :: 6.87

Let us move to another entry and its TGI.
For "CCCCCCCCCc1cc[n+](CC(=O)c2ccc([N+](=O)[O-])cc2)cc1" the compound record lists TGI as 1.03

---

Tested on: U251 CNS
Assay: NCI tumour cell line growth inhibition, 48 h
parameter: TGI (µM)
The reply should contain only the number, in µM.

COc1cc(/C=C/c2cc(/C=C/c3ccc(O)c(OC)c3)nc(N)n2)ccc1O :: 5.69

For "O=C(/C=C1\C[C@H]2C=Nc3ccccc3C(=O)N2C1)NCCCCNC(=O)/C=C1\C[C@H]2C=Nc3ccccc3C(=O)N2C1" the molecule record lists TGI as 11.3

For "CC#C/C(=N\OC[C@H]1COCCN1)c1ccc2ncnc(Nc3ccc(OCc4cccc(F)c4)c(Cl)c3)c2c1" the molecule record lists TGI as 3.22

For "COC1=CC(=O)C(OC)=C(OC)C1=O" the molecule record lists TGI as 29.3

---

Tested on: RXF 393 renal
Test: NCI tumour cell line growth inhibition, 48 h; in the data active means GI50 below about 0.43 µM; inactive means the rest
Respond only with the outcome that fits, drawn from label 1 = active, label 0 = inactive

// below: answered molecules
Fc1ccc(-c2ncn(C3CCNCC3)c2-c2ccnc(Oc3ccc(F)c(F)c3)n2)cc1 :: label 0
Cc1nccc2c3ccc(OCc4cn(-c5ccc(Cl)cc5)nn4)cc3n(CCCc3ccccc3)c12 :: label 0
Cc1cc2cn3c4ccc(O)cc4[nH]c(=O)c3c2cc1C :: label 1
CC(=O)N1c2ccccc2NC2=C(C(=O)N(Cc3ccccc3)C2(C)C)C1c1ccco1 (centres undefined) :: label 0
CCN(CC)c1ccc2c(c1)Oc1nc(N)c(C#N)c(N)c1C2Sc1ccc(OC)cc1 (centres undefined) :: label 0
CCCCCCCCCc1cc[n+](CC(=O)c2ccc([N+](=O)[O-])cc2)cc1 :: label 0
CS(=O)(=O)Nc1cccc(-c2cc(-c3ccccc3Cl)c(C#N)c(N)n2)c1 :: label 1
O=c1c(O)cccc2cc(O)c(O)c(O)c12 :: label 0
NCCN.NCCN.O=C[O-].O=C[O-].[Co+3].[O-][Cl+3]([O-])([O-])[O-] :: label 0
COc1cc2c3c(n(CCCNCCCNCCCNCCCN)c(=O)c2cc1OC)-c1cc2c(cc1C3=O)OCO2 :: label 0

[Q] GET /call?item= "COC(=O)c1c(O)c([N+](=O)[O-])cc2c1c1c(n2Cc2ccccc2)C(=O)c2ccccc2C1=O" returns the recorded outcome of this test.
[A] label 0

[Q] GET /call?item= "CN1C(=O)[C@@H](NC(=O)[C@H](CCC(F)(F)F)[C@H](CCC(F)(F)F)C(N)=O)N=C(c2ccccc2)c2ccccc21" returns the recorded outcome of this test.
[A] label 0

[Q] GET /call?item= "CCn1cc(-c2ccnc3[nH]ccc23)c(-c2cccc(NC(=O)Nc3ccc(OCc4ccccc4)cc3)c2)n1" returns the recorded outcome of this test.
[A] label 0

[Q] GET /call?item= "CN1CCN(c2cc(C(=O)Nc3cc4cc(-c5cnn(C)c5)ccc4cn3)ccn2)CC1" returns the recorded outcome of this test.
[A] label 1

---

Below is a list of entries, each paired with its recorded TGI value.
System: MCF7 breast
Test: NCI tumour cell line growth inhibition, 48 h

Clc1ccc(C2=Nn3c(nnc3-c3cc(Cl)cc(Cl)c3Cl)SC2)cc1 :: 92.7 µM
C=C(C)CC1(O)C(=O)C(OCC)=C1OCC (stereo not given) :: > 100 µM
CC1(C)CC(=O)C2=C(C1)NC1=C(C(=O)CC(C)(C)C1)C2c1ccc([N+](=O)[O-])cc1 :: > 100 µM
N=c1c2c(=S)n(-c3ccccc3)c(=S)n(-c3ccccc3)c2nc(SCCCN2CCN(c3cccc(Cl)c3)CC2)n1-c1ccccc1 :: > 100 µM
Cc1ccc2c(c1)C(=O)N1CCC[C@H]1C=N2 :: > 76.5 µM

For CCN(CC)CCCC(C)Nc1nc(C)cc(Nc2ccc3nc(C)cc(N)c3c2)n1 (stereo not given) the compound record lists TGI as 78.3 µM

For "CN1C(=O)[C@@H](NC(=O)[C@H](CCC(F)(F)F)[C@H](CCC(F)(F)F)C(N)=O)N=C(c2ccccc2)c2ccccc21" the compound record lists TGI as > 100 µM

For "CC(C)OP(=O)(OC(C)C)/C(C#N)=C/c1ccco1" the compound record lists TGI as > 100 µM

For "Cc1oc(N)c(S(=O)(=O)c2ccc(Cl)cc2)c1C" the compound record lists TGI as > 100 µM

For Nc1ccccc1NC(=O)c1ccc(CCCC(=O)Nc2ccc(C3CC3N)cc2)cc1 (stereo not given) the compound record lists TGI as > 100 µM

---

System: RXF 393 renal
Assay: NCI tumour cell line growth inhibition, 48 h
parameter: TGI

Solved entries (count: 5):
Brc1c(C#CCC(c2ccccc2)(c2ccccc2)c2ccccc2)ccc(C#CCC(c2ccccc2)(c2ccccc2)c2ccccc2)c1Br :: > 100 µM
Cc1ccc(NC(=O)C(=O)CC(=O)C2CCOC2=O)c(C)c1 (stereo not drawn) :: > 100 µM
CCOC(=O)C(=O)Nc1ccc(Cl)cc1C :: > 100 µM
COc1ccc(C2Oc3cc(OC)c(O)c(C)c3[C@H]2C)cc1 (stereo partly drawn) :: > 100 µM
CC(=O)[O-].[Mn+3].[O-]c1ccccc1C=NCCN=Cc1ccccc1[O-] :: > 100 µM

For "N#CC(C#N)=C(N)/C(C#N)=C/c1ccc2ccccc2n1" the molecule record lists TGI as 42.1 µM

For "C[C@@H](CN1CC(=O)NC(=O)C1)N1CC(=O)NC(=O)C1" the molecule record lists TGI as 1140 µM

For "CCN(CC)CCNC(=O)c1ccc(I)cc1" the molecule record lists TGI as > 100 µM

For O=C1c2ccccc2NC1(c1ccccc1)c1c(-c2ccccc2)[nH]c2ccccc12 (stereo not drawn) the molecule record lists TGI as 64.1 µM

For "CCOP(=O)(C/C=C/Cn1nc(Br)c(=O)[nH]c1=O)OCC" the molecule record lists TGI as > 100 µM

For "CC(C)(C)NC(=O)NC12CC3CC(CC(F)(C3)C1)C2" the molecule record lists TGI as > 100 µM

For CC(C)C1CC2C(=O)N(c3ccccc3)C(=O)C2c2[nH]c3ccccc3c21 (stereo not drawn) the molecule record lists TGI as 57.4 µM

For "CC(C)(C)OC(=O)N(O)CCCn1cnc2c(N)ncnc21" the molecule record lists TGI as > 100 µM
